Test system: Caco-2 cell line
Test Summary: Cytotoxicity MTS assay, Caco-2 cell line
Type: cell-based
Experimental Parameters: 1μM; first assay; Caco-2 cell line
Hi there, I'd appreciate the recorded OD490 Well 3 for every entry that follows.
Answers are plain numbers.

Worked examples, 3 compounds total:
Compound | Target Entity | OD490 Well 3
CCOC(=O)c1c(C2NC(=O)NC(C)=C2C(=O)Nc2ccccc2)[nH]c(C(=O)OC)c1C (stereo not shown) | Caco-2 cell line | 0.4957
CCOC(=O)c1[nH]c(C2NC(=O)NC(C)=C2C(=O)Nc2ccccc2OC)c(C(=O)OC)c1C (stereo not shown) | Caco-2 cell line | 0.6777
CCOC(=O)C1=C(C)NC(=S)NC1c1cccc(O)c1 (stereo not shown) [Monastrol, monastrol, reference compound] | Caco-2 cell line | 0.6213

Now look at this one.
What the record says about CCOC(=O)c1[nH]c(C2NC(=O)NC(C)=C2C(=O)Nc2ccc(Cl)cc2)c(C(=O)OCC)c1C (stereo not shown) : OD490 Well 3 is 0.5197

###

Hi there, I'd appreciate the recorded OD630 Value Mean for every entry that follows.
Target Entity: Eg5 motor protein (Homo sapiens, UniProt P52732)
Construct: Eg5 motor domain (amino acids 1-368) was cloned into pET22b; His-tag (C); made in house; host or cells: Escherichia coli BL21 (DE3)
Sequence (P52732 1-368): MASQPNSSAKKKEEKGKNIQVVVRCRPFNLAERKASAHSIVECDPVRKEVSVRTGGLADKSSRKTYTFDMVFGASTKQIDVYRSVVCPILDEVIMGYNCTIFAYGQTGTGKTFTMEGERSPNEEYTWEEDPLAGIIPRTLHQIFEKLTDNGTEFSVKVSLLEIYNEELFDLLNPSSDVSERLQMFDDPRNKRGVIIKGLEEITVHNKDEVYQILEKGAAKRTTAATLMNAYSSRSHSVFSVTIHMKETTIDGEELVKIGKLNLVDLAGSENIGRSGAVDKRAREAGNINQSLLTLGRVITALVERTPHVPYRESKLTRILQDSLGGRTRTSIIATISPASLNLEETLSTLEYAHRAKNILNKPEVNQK
Test Summary: microtubule-activated Eg5 motor protein ATPase assay (malachite green, OD630)
Format: biochemical
Experimental Parameters: compound 121.21 uM
Answers are plain numbers.

Worked examples, 4 compounds total:
Compound | Target Entity | Endpoint Name | Numeric Readout
CCOC(=O)c1[nH]c(C2NC(=O)NC(C)=C2C(=O)Nc2ccccc2OC)c(C(=O)OC)c1C (stereo not shown) [D3] | Eg5 motor protein (Homo sapiens, UniProt P52732) | OD630 Value Mean | 0.115
CCOC(=O)c1[nH]c(C2NC(=S)NC(C)=C2C(=O)OC)c(C(=O)OCC)c1C (stereo not shown) [D12] | Eg5 motor protein (Homo sapiens, UniProt P52732) | OD630 Value Mean | 0.123
CCOC(=O)c1c(C2NC(=O)NC(C)=C2C(=O)Nc2ccccc2)[nH]c(C(=O)OC)c1C (stereo not shown) [D10] | Eg5 motor protein (Homo sapiens, UniProt P52732) | OD630 Value Mean | 0.133
CCOC(=O)c1[nH]c(C2NC(=O)NC(C)=C2C(=O)Nc2ccc(Cl)cc2)c(C(=O)OCC)c1C (stereo not shown) [D7] | Eg5 motor protein (Homo sapiens, UniProt P52732) | OD630 Value Mean | 0.146

Please give OD630 Value Mean for each item listed below.
1. CCOC(=O)c1[nH]c(C2NC(=O)NC(C)=C2C(=O)Nc2ccccc2C)c(C(=O)OC)c1C (stereo not shown) [D4]
2. CCOc1ccccc1C1NC(=S)NC(C)=C1C(=O)Nc1ccc(Cl)cc1 (stereo not shown) [C9]
3. COC(=O)c1[nH]c(C2NC(=S)NC(C)=C2C(=O)c2ccccc2)c(C(=O)OC)c1C (stereo not shown) [D14]

1: 0.134; 2: 0.14; 3: 0.14

###

System: T24 cell line
Test Summary: Cytotoxicity MTS assay, T24 cell line;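 further: blank control wells received 0.025% DMSO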
Format: cell-based
Experimental Parameters: T24 cell line, 10μM, first assay
Hi there, I'd appreciate the recorded OD490 Mean for every entry that follows.
One number for each entry.

Worked examples, 3 molecules total:
Molecule | Target Entity | OD490 Mean
CCOC(=O)c1c(C2NC(=O)NC(C)=C2C(=O)Nc2ccccc2C)[nH]c(C(=O)OC)c1C (stereo not shown) [D2] | T24 cell line | 1.7422
CCOC(=O)C1=C(C)NC(=S)NC1c1cccc(O)c1 (stereo not shown) [Monastrol, monastrol, reference compound] | T24 cell line | 1.8245
CCOC(=O)c1[nH]c(C2NC(=S)NC(C)=C2C(=O)OC)c(C(=O)OCC)c1C (stereo not shown) | T24 cell line | 1.2900

Please give OD490 Mean for each item listed below.
1. CCOC(=O)c1c(C2NC(=O)NC(C)=C2C(=O)Nc2ccccc2)[nH]c(C(=O)OC)c1C (stereo not shown)
2. CCOC(=O)c1[nH]c(C2NC(=O)NC(C)=C2C(=O)Nc2ccc(Cl)cc2)c(C(=O)OCC)c1C (stereo not shown)

1. 1.4610
2. 1.4981

Please give OD490 Mean for each item listed below.
1. CCOc1ccccc1C1NC(=S)NC(C)=C1C(=O)Nc1ccc(Cl)cc1 (stereo not shown)
2. COC(=O)c1[nH]c(C2NC(=S)NC(C)=C2C(=O)c2ccccc2)c(C(=O)OC)c1C (stereo not shown)
3. CCOC(=O)c1c(C2NC(=O)NC(C)=C2C(=O)Nc2ccccc2OC)[nH]c(C(=O)OC)c1C (stereo not shown) [D1]
4. CCOC(=O)c1[nH]c(C2NC(=O)NC(C)=C2C(=O)Nc2ccccc2C)c(C(=O)OC)c1C (stereo not shown)

1. 1.7610
2. 1.2661
3. 1.8792
4. 1.7700

What the record says about CCOC(=O)c1[nH]c(C2NC(=O)NC(C)=C2C(=O)Nc2ccccc2OC)c(C(=O)OC)c1C (stereo not shown) : OD490 Mean is 1.5897
